Data credit: patent US8889727B2

# collection of MIC values tested on T. rubrum ATCC10218

Record request: MIC value, item CCOC(=O)c1c(C)nn(-c2ccccc2O)c1C
32 to 64 µg/mL

Record request: MIC value, item Cc1nn(-c2ccc(N)cc2O)c(C)c1C
4 to 16 µg/mL

Record request: MIC value, item Oc1ccccc1-n1nc(C(F)(F)F)cc1C(F)(F)F
> 64 µg/mL

Record request: MIC value, item COC(=O)c1ccc(-n2nc(C)cc2C)c(O)c1
16 to 32 µg/mL

Record request: MIC value, item Cc1nn(-c2ccccc2O)c(C)c1C
≤ 2 µg/mL

Record request: MIC value, item Cc1nn(-c2ccccc2O)c(C)c1Cl
4 to 16 µg/mL

Record request: MIC value, item CC(=O)Oc1ccc(-n2nc(C)c(Cl)c2C)c(O)c1
≤ 2 µg/mL

Record request: MIC value, item Cc1cc(C)n(-c2ccc(C(=O)N(C)C)cc2O)n1
4 to 16 µg/mL

Record request: MIC value, item Cc1ccc(O)c(-n2nc(C)cc2C)c1
32 to 64 µg/mL

Record request: MIC value, item Cc1cc(C)n(-c2c(O)cccc2O)n1
32 to 64 µg/mL

Record request: MIC value, item Cc1cc(C)n(-c2ccc(O)cc2O)n1
≤ 2 µg/mL

Record request: MIC value, item Cc1cc(C)n(-c2ccc(Br)cc2O)n1
≤ 2 µg/mL

Record request: MIC value, item Cc1cc(C)n(-c2cc(Cl)c(C)cc2O)n1
16 to 32 µg/mL

Record request: MIC value, item Cc1cc(C)n(-c2cc(O)ccc2O)n1
> 64 µg/mL

Record request: MIC value, item COC(=O)CCc1c(C)nn(-c2ccccc2O)c1C
32 to 64 µg/mL

Record request: MIC value, item Cc1cc(C)n(-c2ccc(N)cc2O)n1
4 to 16 µg/mL

Record request: MIC value, item Cc1nn(-c2ccc(C(N)=O)cc2O)c(C)c1Cl
32 to 64 µg/mL

Record request: MIC value, item Cc1ccc(-n2nc(C)cc2C)c(O)c1
≤ 2 µg/mL

Record request: MIC value, item Cc1nn(-c2ccccc2O)c(C)c1F
4 to 16 µg/mL

Record request: MIC value, item Cc1cc(C)n(-c2cccc(C)c2O)n1
32 to 64 µg/mL

Record request: MIC value, item Cc1nn(-c2ccc(F)cc2O)c(C)c1Cl
4 to 16 µg/mL

Record request: MIC value, item Cc1nn(-c2ccc(Br)cc2O)c(C)c1C
≤ 2 µg/mL

Record request: MIC value, item CCc1c(C)nn(-c2ccccc2O)c1C
≤ 2 µg/mL
